Attribution: ChEMBL document CHEMBL3585239

MEASURED TARGET: Acetylcholinesterase (Homo sapiens, UniProt P22303)
Sequence (P22303 whole entry): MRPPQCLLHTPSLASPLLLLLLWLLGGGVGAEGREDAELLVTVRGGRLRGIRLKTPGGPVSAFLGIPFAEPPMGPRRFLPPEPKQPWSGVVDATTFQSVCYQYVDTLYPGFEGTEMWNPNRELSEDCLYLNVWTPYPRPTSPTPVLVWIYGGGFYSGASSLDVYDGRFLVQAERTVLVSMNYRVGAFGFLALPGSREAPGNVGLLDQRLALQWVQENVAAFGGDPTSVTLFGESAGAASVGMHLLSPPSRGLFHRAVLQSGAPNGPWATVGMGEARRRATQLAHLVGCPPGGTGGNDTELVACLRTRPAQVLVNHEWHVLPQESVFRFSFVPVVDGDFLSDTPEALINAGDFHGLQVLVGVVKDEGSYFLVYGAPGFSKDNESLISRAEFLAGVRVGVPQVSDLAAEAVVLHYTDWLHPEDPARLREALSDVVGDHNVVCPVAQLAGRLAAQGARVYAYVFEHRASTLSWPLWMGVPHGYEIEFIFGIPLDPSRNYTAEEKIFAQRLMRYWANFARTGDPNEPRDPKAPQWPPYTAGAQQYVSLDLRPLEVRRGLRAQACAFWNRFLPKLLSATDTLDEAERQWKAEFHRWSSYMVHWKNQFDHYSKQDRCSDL
PROTOCOL DESCRIPTION: Inhibition of human recombinant AChE using acetylthiocholine iodide as substrate after 20 mins by Ellmans method
Catalogue of compounds with associated IC50
MEASURED ATTRIBUTE: IC50 (nM)

INSERT INTO results (structure_string, measured_target, observed_result) VALUES
  ('Cc1ccc2[nH]c3c(c2c1)CN(CCCCCCN1CCc2[nH]c4ccc(C)cc4c2C1)CC3', 'Acetylcholinesterase (Homo sapiens, UniProt P22303)', 190),
  ('O=C(Cc1ccccc1Nc1c(Cl)cccc1Cl)NCCCNCCCNC1=CC(=O)C(NCCCNCCCNC(=O)Cc2ccccc2Nc2c(Cl)cccc2Cl)=CC1=O', 'Acetylcholinesterase (Homo sapiens, UniProt P22303)', 600),
  ('Cc1ccc2[nH]c3c(c2c1)CN(CCCCCCCN1CCc2[nH]c4ccc(C)cc4c2C1)CC3', 'Acetylcholinesterase (Homo sapiens, UniProt P22303)', 690),
  ('CCN(CCCCCCNC1=CC(=O)C(NCCCCCCN(CC)Cc2ccccc2OC)=CC1=O)Cc1ccccc1OC', 'Acetylcholinesterase (Homo sapiens, UniProt P22303)', 15400);
